Task for the reader: assign each of the following compounds its reported pEC50.
tested on: NRTI-resistant HIV-1 strain 7406; assay: microbe, parasite or virus in culture; format: cell-based; conditions: Human immunodeficiency virus 1, TZM-bl
Keep it numeric: pEC50 is minus log10 of the concentration in mol/L.

Query: What measured pEC50 goes with "Cc1[nH]c2ccc(-c3nnc(SCC(=O)N4CCCC4)o3)cc2c1C" ?
Response: 6.80

Query: What measured pEC50 goes with "Cc1[nH]c2ccc(-c3nnc(SCC(=O)N4CCCCC4)o3)cc2c1C" ?
Response: 7.05

Query: What measured pEC50 goes with "Cc1cn([C@H]2C[C@H](N=[N+]=[N-])[C@@H](CO)O2)c(=O)[nH]c1=O" ?
Response: 4.14

Reference source for all entries: paper PMC11459959
